# tgt: human GPR84 receptor (Homo sapiens, UniProt Q9NQS5)
# Construct: frozen aliquots prepared by acCELLerate; host or cells: CHO-K1
# Sequence (Q9NQS5 whole entry): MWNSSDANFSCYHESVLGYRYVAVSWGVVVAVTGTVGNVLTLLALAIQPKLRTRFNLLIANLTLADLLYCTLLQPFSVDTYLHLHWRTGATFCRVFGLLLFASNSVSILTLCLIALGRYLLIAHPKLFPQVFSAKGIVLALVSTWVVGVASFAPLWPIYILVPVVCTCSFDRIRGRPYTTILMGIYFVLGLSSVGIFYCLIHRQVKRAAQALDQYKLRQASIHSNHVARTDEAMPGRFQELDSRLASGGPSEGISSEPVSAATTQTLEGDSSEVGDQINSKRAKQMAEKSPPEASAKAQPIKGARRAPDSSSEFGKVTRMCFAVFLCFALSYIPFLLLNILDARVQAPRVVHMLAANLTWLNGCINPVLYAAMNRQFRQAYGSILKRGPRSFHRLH
# assay details: cAMP HTRF assay for identification of cellular GPR84 antagonists
# Assay type: cell-based
# assay context: CHO-K1 cells stably expressing human GPR84; Forskolin plus agonist 6-OAU; cAMP HTRF readout; average or median values
# Text: cAMP HTRF® Assay for Identification of Cellular GPR84 Antagonists By using a Homogenous Time-Resolved Fluorescence (HTRF®) based assay (#62AM5PEJ, Cisbio, Condolet, France) the inhibition of the Gi-coupled GPR84 receptor can be detected. […] Detection and quantification of cellular cAMP levels in this HTRF assay is achieved by interaction between a fluorescent cAMP tracer (cAMP-d2) and an Eu-cryptate labelled anti-cAMP antibody. […]
Note to self: class labels come from recorded IC50, ranges listed here: bucket 1: < 50 nM; bucket 2: ≥ 50 nM and < 200 nM; bucket 3: ≥ 200 nM

Consider the worked cases shown below.
structure as smiles	class name
Cc1ccc(CNC(=O)c2oc3ccc4cn(C[C@H]5COCCO5)nc4c3c2C(F)(F)F)nn1	bucket 3
O=C(NC[C@@H]1CCCO1)c1cc2c(ccc3cn(Cc4ccccn4)nc32)o1	bucket 3
O=C(NC[C@@H]1CCCO1)c1oc2ccc3cn(Cc4ccccn4)nc3c2c1CO	bucket 3
Cc1c(C(=O)NC[C@@H]2CCCO2)oc2ccc3cn(Cc4ccccn4)nc3c12	bucket 1
Cc1ccnc(CNC(=O)c2oc3ccc4cn(C[C@H]5COCCO5)nc4c3c2C(F)(F)F)c1	bucket 2
Cc1ccc(Cn2cc3ccc4oc(C(=O)NC[C@@H]5CCCO5)c(C(F)(F)F)c4c3n2)cn1	bucket 1

Given O=C(NCCc1ccccn1)c1oc2ccc3cn(C[C@H]4COCCO4)nc3c2c1C(F)(F)F , name the class its IC50 places it in. bucket 3

Given Cc1ccc(Cn2cc3c(C)cc4oc(C(=O)NCc5ncco5)c(C(F)(F)F)c4c3n2)nc1 , name the class its IC50 places it in. bucket 1

Given O=C(NCc1cocn1)c1oc2ccc3cn(C[C@H]4COCCO4)nc3c2c1C(F)(F)F , name the class its IC50 places it in. bucket 2

Given Cc1cc2oc(C(=O)NCc3ccn(C)n3)c(C(F)(F)F)c2c2nn(Cc3ccccn3)cc12 , name the class its IC50 places it in. bucket 2

Given O=C(NCc1ccncn1)c1oc2ccc3cn(C[C@H]4COCCO4)nc3c2c1C(F)(F)F , name the class its IC50 places it in. bucket 2

Given O=C(NCc1cncs1)c1oc2ccc3cn(C[C@H]4COCCO4)nc3c2c1C(F)(F)F , name the class its IC50 places it in. bucket 3

Given N#Cc1ccnc(CNC(=O)c2oc3ccc4cn(C[C@H]5COCCO5)nc4c3c2C(F)(F)F)c1 , name the class its IC50 places it in. bucket 3

Given Cc1ccc(Cn2cc3c(C)cc4oc(C(=O)NC[C@@H]5CCCO5)c(C(F)(F)F)c4c3n2)nc1 , name the class its IC50 places it in. bucket 1

Given Cc1ccc(Cn2cc3ccc4oc(C(=O)NC[C@@H]5COCCO5)c(C(F)(F)F)c4c3n2)cn1 , name the class its IC50 places it in. bucket 1
